All figures here come from the OligoGym collection.

conditions: siRNA; note: test system not given here
HELM strings list units from the 5' end as sugar, base in round brackets, then linkage (d deoxyribose, r ribose, m 2'-O-methyl, p phosphodiester). Strings are as the collection lists them, not checked against the first reports. ss, as = sense and antisense strand; [fl2r] = 2'-fluoro
MEASURE NAME: target mRNA knockdown (%)
Answer in %, number only, no unit symbol.

Report target mRNA knockdown for RNA1{r(U)p.m(U)p.r(A)p.r(A)p.r(G)p.r(G)p.r(A)p.r(G)p.r(A)p.r(A)p.r(G)p.r(C)p.r(U)p.r(G)p.r(A)p.r(C)p.r(G)p.r(G)p.r(C)p.r(T)p.r(T)}|RNA2{r(G)p.r(C)p.r(C)p.r(G)p.r(U)p.r(C)p.r(A)p.r(G)p.r(C)p.r(U)p.r(U)p.r(C)p.r(U)p.r(C)p.r(C)p.r(U)p.m(U)p.r(A)p.r(A)p.r(T)p.r(T)}$$$RNA1{StrandType:ss}|RNA2{StrandType:as}$
69

Identify the reported target mRNA knockdown for the following entry. RNA1{r(A)p.r(G)p.r(A)p.r(C)p.[fl2r](U)p.r(A)p.r(A)p.r(G)p.r(C)p.r(C)p.r(C)p.r(A)p.r(A)p.r(A)p.r(A)p.r(G)p.r(G)p.r(G)p.r(C)p.r(T)p.r(T)}|RNA2{r(G)p.r(C)p.r(C)p.r(C)p.r(U)p.r(U)p.r(U)p.r(U)p.r(G)p.r(G)p.r(G)p.r(C)p.r(U)p.[fl2r](U)p.r(A)p.r(G)p.r(U)p.r(C)p.r(U)p.r(T)p.r(T)}$$$RNA1{StrandType:ss}|RNA2{StrandType:as}$
47

---

What target mRNA knockdown was measured for each of the following?
settings: siRNA
HELM strings list units from the 5' end as sugar, base in round brackets, then linkage (d deoxyribose, r ribose, m 2'-O-methyl, p phosphodiester). Strings are as the collection lists them, not checked against the first reports. ss, as = sense and antisense strand; [fl2r] = 2'-fluoro
Provide only the numeric value, understood in %.

In one line, give reported target mRNA knockdown of the entry RNA1{[fl2r](C)p.r(U)p.[fl2r](A)p.r(G)p.[fl2r](A)p.r(G)p.[fl2r](G)p.r(A)p.[fl2r](U)p.r(C)p.[fl2r](U)p.r(U)p.[fl2r](G)p.r(A)p.[fl2r](A)p.r(G)p.[fl2r](A)p.r(C)p.[fl2r](C)p.r(T)p.r(T)}|RNA2{[fl2r](G)p.[fl2r](G)p.r(U)p.r(C)p.r(U)p.r(U)p.r(C)p.r(A)p.r(A)p.[fl2r](G)p.r(A)p.r(U)p.r(C)p.r(C)p.r(U)p.r(C)p.r(U)p.r(A)p.[fl2r](G)p.r(T)p.r(T)}$$$RNA1{StrandType:ss}|RNA2{StrandType:as}$ .
38

Provide only the value of recorded target mRNA knockdown for RNA1{r(A)p.r(U)p.r(C)p.r(C)p.m(U)p.r(G)p.m(C)p.r(A)p.r(G)p.r(A)p.r(A)p.m(G)p.r(A)p.r(A)p.r(G)p.r(C)p.r(C)p.r(U)p.r(C)p.r(T)p.r(T)}|RNA2{r(G)p.r(A)p.r(G)p.r(G)p.r(C)p.r(U)p.r(U)p.r(C)p.r(U)p.r(U)p.r(C)p.m(U)p.r(G)p.m(C)p.r(A)p.r(G)p.r(G)p.r(A)p.r(U)p.r(T)p.r(T)}$$$RNA1{StrandType:ss}|RNA2{StrandType:as}$
50

Note target mRNA knockdown for the substance shown: RNA1{r(A)p.r(A)p.r(A)p.r(C)p.r(G)p.m(U)p.r(G)p.r(A)p.r(C)p.r(U)p.r(U)p.m(U)p.r(G)p.r(G)p.r(U)p.r(U)p.r(C)p.m(C)p.r(U)p.r(T)p.r(T)}|RNA2{r(A)p.r(G)p.r(G)p.r(A)p.r(A)p.r(C)p.m(C)p.r(A)p.r(A)p.r(A)p.r(G)p.r(U)p.m(C)p.r(A)p.r(C)p.r(G)p.r(U)p.r(U)p.r(U)p.r(T)p.r(T)}$$$RNA1{StrandType:ss}|RNA2{StrandType:as}$
82

Dear colleague, please send me the reported target mRNA knockdown for RNA1{r(A)p.r(C)p.r(G)p.r(U)p.m(C)p.r(A)p.r(C)p.r(C)p.r(G)p.r(A)p.r(G)p.r(G)p.r(A)p.r(G)p.r(A)p.r(A)p.r(G)p.m(U)p.m(A)p.r(T)p.r(T)}|RNA2{m(U)p.m(A)p.r(C)p.r(U)p.r(U)p.r(C)p.r(U)p.r(C)p.r(C)p.r(U)p.r(C)p.r(G)p.r(G)p.m(U)p.r(G)p.r(A)p.r(C)p.r(G)p.r(U)p.r(T)p.r(T)}$$$RNA1{StrandType:ss}|RNA2{StrandType:as}$ when you can.
74

Return reported target mRNA knockdown. Input substance: RNA1{r(C)p.r(U)p.[fl2r](A)p.r(G)p.r(A)p.r(G)p.r(G)p.r(A)p.r(U)p.r(C)p.r(U)p.r(U)p.r(G)p.r(A)p.r(A)p.r(G)p.r(A)p.r(C)p.r(C)p.r(T)p.r(T)}|RNA2{r(G)p.r(G)p.r(U)p.r(C)p.r(U)p.r(U)p.r(C)p.r(A)p.r(A)p.r(G)p.r(A)p.r(U)p.r(C)p.r(C)p.r(U)p.r(C)p.[fl2r](U)p.r(A)p.r(G)p.r(T)p.r(T)}$$$RNA1{StrandType:ss}|RNA2{StrandType:as}$
82

---

conditions: siRNA
HELM strings list units from the 5' end as sugar, base in round brackets, then linkage (d deoxyribose, r ribose, m 2'-O-methyl, p phosphodiester). Strings are as the collection lists them, not checked against the first reports. ss, as = sense and antisense strand; [s4r] = 4'-thioribose
Kindly supply the reported target mRNA knockdown values for the records listed here.
Return type: number; implicit unit %.

Could you please provide reported target mRNA knockdown for RNA1{r(G)p.r(A)p.m(U)p.r(A)p.r(C)p.r(U)p.r(U)p.r(C)p.m(U)p.r(G)p.r(G)p.r(U)p.r(U)p.r(C)p.r(C)p.r(C)p.r(U)p.r(C)p.r(C)p.r(T)p.r(T)}|RNA2{r(G)p.r(G)p.r(A)p.r(G)p.r(G)p.r(G)p.r(A)p.r(A)p.r(C)p.m(C)p.r(A)p.r(G)p.r(A)p.r(A)p.r(G)p.m(U)p.r(A)p.r(U)p.r(C)p.r(T)p.r(T)}$$$RNA1{StrandType:ss}|RNA2{StrandType:as}$ ? Thanks!
45

Determine its reported target mRNA knockdown: RNA1{[s4r](C)p.[s4r](G)p.[s4r](U)p.[s4r](A)p.r(C)p.r(G)p.r(C)p.r(G)p.r(G)p.r(A)p.r(A)p.r(U)p.r(A)p.r(C)p.r(U)p.[s4r](U)p.[s4r](C)p.[s4r](G)p.[s4r](A)p.r(T)p.r(T)}|RNA2{r(U)p.r(C)p.r(G)p.r(A)p.r(A)p.r(G)p.r(U)p.r(A)p.r(U)p.r(U)p.r(C)p.r(C)p.r(G)p.r(C)p.r(G)p.r(U)p.r(A)p.[s4r](C)p.[s4r](G)p.r(T)p.r(T)}$$$RNA1{StrandType:ss}|RNA2{StrandType:as}$
92

For the substance RNA1{r(G)p.r(G)p.r(G)p.r(G)p.r(C)p.r(U)p.r(C)p.r(U)p.r(U)p.r(C)p.m(U)p.r(A)p.r(C)p.r(A)p.m(U)p.r(U)p.r(C)p.r(C)p.r(C)p.r(T)p.r(T)}|RNA2{r(G)p.r(G)p.r(G)p.r(A)p.r(A)p.m(U)p.r(G)p.m(U)p.r(A)p.r(G)p.r(A)p.r(A)p.r(G)p.r(A)p.r(G)p.r(C)p.r(C)p.r(C)p.r(C)p.r(T)p.r(T)}$$$RNA1{StrandType:ss}|RNA2{StrandType:as}$ , give its measured target mRNA knockdown value.
68

---

conditions: siRNA
HELM strings list units from the 5' end as sugar, base in round brackets, then linkage (d deoxyribose, r ribose, m 2'-O-methyl, p phosphodiester). Strings are as the collection lists them, not checked against the first reports. ss, as = sense and antisense strand; [fl2r] = 2'-fluoro
MEASURE NAME: target mRNA knockdown (%)
Please respond with the number in % and leave the unit unwritten.

Tell me its target mRNA knockdown given RNA1{[fl2r](G)p.r(A)p.[fl2r](G)p.r(U)p.[fl2r](A)p.r(U)p.[fl2r](U)p.r(U)p.[fl2r](C)p.r(C)p.[fl2r](G)p.r(C)p.[fl2r](U)p.r(G)p.[fl2r](G)p.r(A)p.[fl2r](A)p.r(C)p.[fl2r](U)p.r(T)p.r(T)}|RNA2{r(A)p.r(G)p.r(U)p.r(U)p.r(C)p.r(C)p.r(A)p.r(G)p.r(C)p.r(G)p.r(G)p.r(A)p.r(A)p.r(A)p.r(U)p.r(A)p.r(C)p.r(U)p.r(C)p.r(T)p.r(T)}$$$RNA1{StrandType:ss}|RNA2{StrandType:as}$ as the entry.
21

Note target mRNA knockdown for the substance shown: RNA1{r(A)p.r(A)p.r(C)p.r(U)p.r(C)p.m(U)p.r(A)p.r(C)p.r(U)p.r(G)p.r(U)p.r(G)p.r(G)p.r(A)p.r(G)p.r(U)p.r(C)p.r(G)p.r(G)p.r(T)p.r(T)}|RNA2{r(C)p.r(C)p.r(G)p.r(A)p.r(C)p.r(U)p.r(C)p.r(C)p.r(A)p.r(C)p.r(A)p.r(G)p.m(U)p.r(A)p.r(G)p.r(A)p.r(G)p.r(U)p.r(U)p.r(T)p.r(T)}$$$RNA1{StrandType:ss}|RNA2{StrandType:as}$
69
